System: Aspergillus flavus
Experiment: Antifungal activity against Aspergillus flavus assessed as reduction in fungal cell growth incubated for 48 hrs by serial dilution method
Assay type: functional

{"COMPOUND": "Cc1ccccc1CN1c2ccccc2C2(Cc3ccccc3C)CCN(C(=O)c3ccccc3C)C12 (stereo not given)", "UNIT_TEXT": "µg/mL", "MIC": 250}
{"COMPOUND": "Cc1cccc(CN2c3ccccc3C3(Cc4cccc(C)c4)CCN(C(=O)C(C)C)C23)c1 (stereo not given)", "UNIT_TEXT": "µg/mL", "MIC": 250}
{"COMPOUND": "CCCCCCCC(=O)N1CCC2(Cc3cccc(C)c3)c3ccccc3N(Cc3cccc(C)c3)C12 (stereo not given)", "UNIT_TEXT": "µg/mL", "MIC": 250}
{"COMPOUND": "CN1c2ccccc2C2(O)CCCN(C(=O)c3ccc(F)cc3)C12 (stereo not given)", "UNIT_TEXT": "µg/mL", "MIC": 250}
{"COMPOUND": "CCCC(=O)N1CCC2(Cc3cccc(C)c3)c3ccccc3N(Cc3cccc(C)c3)C12 (stereo not given)", "UNIT_TEXT": "µg/mL", "MIC": 250}
